Test Description: Solubility in water with surfactants and co-solvating agents
Type: physicochemical
Details: water, aqueous with cosolvent or surfactant or cyclodextrin, in water, Tyloxapol 5% w/w and Phospatidyl choline 1% w/w; read-out: Solubility
Measurement Kind: solubility (mg/mL)

Compound	Measurement Kind	Number
CCC(=O)O[C@]1(C(=O)SCF)[C@H](C)C[C@H]2[C@@H]3C[C@H](F)C4=CC(=O)C=C[C@]4(C)[C@@]3(F)[C@@H](O)C[C@@]21C [Fluticasone propionate, reference compound]	solubility	0.197

* * *

Target Or System: glucocorticoid receptor (GR) (Homo sapiens)
Sequence (P04150 whole entry): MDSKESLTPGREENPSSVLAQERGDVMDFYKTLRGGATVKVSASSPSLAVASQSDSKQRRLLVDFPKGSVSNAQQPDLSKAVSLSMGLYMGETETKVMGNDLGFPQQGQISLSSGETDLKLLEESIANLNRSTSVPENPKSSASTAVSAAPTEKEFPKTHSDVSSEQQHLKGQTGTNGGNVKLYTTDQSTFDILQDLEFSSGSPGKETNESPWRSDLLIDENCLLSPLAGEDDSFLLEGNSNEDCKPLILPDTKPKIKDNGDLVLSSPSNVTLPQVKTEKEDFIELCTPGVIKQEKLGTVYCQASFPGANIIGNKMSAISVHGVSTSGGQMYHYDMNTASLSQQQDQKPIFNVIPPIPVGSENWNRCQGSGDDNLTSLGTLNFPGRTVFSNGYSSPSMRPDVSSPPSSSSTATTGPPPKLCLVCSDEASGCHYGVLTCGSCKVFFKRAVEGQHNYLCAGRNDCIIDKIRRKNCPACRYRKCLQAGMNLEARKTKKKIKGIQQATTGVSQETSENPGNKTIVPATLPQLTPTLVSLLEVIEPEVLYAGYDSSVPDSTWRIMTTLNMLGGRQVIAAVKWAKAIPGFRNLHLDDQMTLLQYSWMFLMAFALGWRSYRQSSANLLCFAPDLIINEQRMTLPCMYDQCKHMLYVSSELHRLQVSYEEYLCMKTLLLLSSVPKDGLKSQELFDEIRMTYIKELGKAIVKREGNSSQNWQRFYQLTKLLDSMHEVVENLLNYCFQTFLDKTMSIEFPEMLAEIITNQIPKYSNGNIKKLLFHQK
Test Description: Transactivation (GR): A549 cells with renilla luciferase reporter under glucocorticoid response elements
Assay type: cell-based
Details: renilla luciferase GRE reporter, read-out: Transactivation (GR) ED50

Molecule	EC50
C[C@@H]1CC2C3C[C@H](F)C4=CC(=O)C=C[C@]4(C)[C@@]3(F)[C@@H](O)C[C@]2(C)[C@@]1(OC(=O)c1ccco1)C(=O)O (stereo partly shown) [Metabolite (X)]	< 250 nM

* * *

Test Description: Solubility in water with surfactants and co-solvating agents
Assay type: physicochemical
Details: water, aqueous with cosolvent or surfactant or cyclodextrin, in water, Sodium cholate 2% w/w; read-out: Solubility

Compound	Unit	solubility
CCC(=O)O[C@]1(C(=O)SCF)[C@H](C)C[C@H]2[C@@H]3C[C@H](F)C4=CC(=O)C=C[C@]4(C)[C@@]3(F)[C@@H](O)C[C@@]21C [Fluticasone propionate, reference compound]	µg/mL	11

Source listed as patent US6787532B2.
